Recorded OD450 for the following binders
# studySystem: T1, recombinant MS4A4A soluble polypeptide JS5
# T1 construct: also called JS5.His
# procedureSummary: ELISA, 0.4 ug/ml antibody

binder	OD450
anti-MS4A4A antibody 4A-376 (antibody, V domains shown, full human IgG) VH: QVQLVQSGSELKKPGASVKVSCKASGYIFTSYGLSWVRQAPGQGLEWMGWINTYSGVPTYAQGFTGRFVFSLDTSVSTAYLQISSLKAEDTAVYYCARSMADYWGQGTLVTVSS VL: DVVMTQSPLSLPVTLGQPASISCKSSRSLLYSDGKTYLSWFQQRPGQSPRRLIYLVSKLDSGVPDRFSGSGSGTDFTLKISRVEAEDVGVYYCWQGIDFHQTFGGGTKVEIK	0.977
anti-MS4A4A antibody 4A-369 (antibody, V domains shown, full human IgG) VH: QVQLVQSGSELKKPGASVKVSCKASGYTFTSYGLSWIRQAPGQGLEWMGWINTYSGVPTYAQGFTGRFVFSLDTSVSTAYLQISSLKAEDTAVYYCARTMVDYWGQGTLVTVSS VL: DVVMTQSPLSLPVTLGQPASISCKSSQSLLYSDGKTYLSWFQQRPGQSPRRLIYLVSKLDSGVPDRFSGSGSGTDFTLKISRVEAEDVGVYYCWQGIRFHQTFGGGTKVEIK	0.852
anti-MS4A4A antibody 4A-351 (antibody, V domains shown, full human IgG) VH: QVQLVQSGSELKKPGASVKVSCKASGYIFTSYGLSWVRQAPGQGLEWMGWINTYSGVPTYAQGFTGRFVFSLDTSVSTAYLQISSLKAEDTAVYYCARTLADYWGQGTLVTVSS VL: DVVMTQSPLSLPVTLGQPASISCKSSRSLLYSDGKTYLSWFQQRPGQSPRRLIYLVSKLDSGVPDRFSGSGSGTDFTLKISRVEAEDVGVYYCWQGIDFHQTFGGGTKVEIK	0.99
anti-MS4A4A antibody 4A-358 (antibody, V domains shown, full human IgG) VH: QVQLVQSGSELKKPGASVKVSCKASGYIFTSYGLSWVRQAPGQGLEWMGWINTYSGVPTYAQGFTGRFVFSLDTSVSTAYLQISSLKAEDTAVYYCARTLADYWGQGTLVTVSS VL: DVVMTQSPLSLPVTLGQPASISCKSSQSLLYSDGKTYLSWFQQRPGQSPRRLIYLVSKLDSGVPDRFSGSGSGTDFTLKISRVEAEDVGVYYCWQGIRFHQTFGGGTKVEIK	0.901
